- System: K. pneumoniae IT977
- ASSAY INFO: Antimicrobial microdilution assay (MIC/MBC)
- Format: cell-based, Klebsiella pneumoniae
- CONDITION SET: Klebsiella pneumoniae, IT977; subcultivation, 24 h at 37 °C; read-out: MBC
Each record here notes measured MBC.
Form entry: value (mg/L) — number only.

1. C[C@@H]1O[C@@H](OC[C@H]2O[C@@H](Oc3c(-c4ccc(O)c(O)c4)oc4cc(O)cc(O)c4c3=O)[C@H](O)[C@@H](O)[C@@H]2O)[C@H](O)[C@H](O)[C@H]1O	1000

Now for another entry.
// lookup MBC for O=c1c(O[C@@H]2O[C@H](CO)[C@@H](O)[C@H](O)[C@H]2O)c(-c2ccc(O)c(O)c2)oc2cc(O)cc(O)c12
1000

* * *

- System: A. baumannii S2/2
- ASSAY INFO: Antimicrobial microdilution assay (MIC/MBC)
- Format: cell-based, Acinetobacter baumannii
- CONDITION SET: Acinetobacter baumannii, S2/2; subcultivation, 24 h at 37 °C; read-out: MBC
VALUE KIND: MBC

1) O=C1c2c(O)cc(O)cc2OC(c2ccc(O)c(O)c2)C1O (stereo not shown)	500 µg/mL
2) O=C(/C=C/c1ccc(O)c(O)c1)O[C@@H]1C[C@](O)(C(=O)O)C[C@@H](O)[C@H]1O	> 1000 µg/mL
3) O=c1c(O[C@@H]2O[C@H](CO)[C@@H](O)[C@H](O)[C@H]2O)c(-c2ccc(O)c(O)c2)oc2cc(O)cc(O)c12	500 µg/mL

Now for another entry.
// lookup MBC for O=C(O)c1cc(O)c(O)c(O)c1
500 µg/mL

* * *

Each record here notes measured MBC.
- Tested on: P. aeruginosa IBRS P001
- ASSAY INFO: Antimicrobial microdilution assay (MIC/MBC)
- Assay type: cell-based, Pseudomonas aeruginosa
- CONDITION SET: Pseudomonas aeruginosa, IBRSP001; subcultivation, 24 h at 37 °C; read-out: MBC
Form entry: value (µg/mL) — number only.

Worked examples, 6 compounds total:
1) O=C1c2c(O)cc(O)cc2OC(c2ccc(O)c(O)c2)C1O (centres unmarked) [Taxifolin, taxifolin]	500
2) O=c1c(O[C@@H]2O[C@H](CO)[C@@H](O)[C@H](O)[C@H]2O)c(-c2ccc(O)c(O)c2)oc2cc(O)cc(O)c12 [Isoquercitrin, isoquercitrin]	500
3) O=C(O)/C=C/c1ccc(O)cc1 [p-Coumaric Acid, p-coumaric acid]	1000
4) O=C1C[C@@H](c2ccc(O)cc2)Oc2cc(O)cc(O)c21 [Naringenin, naringenin]	500
5) [H]/N=C(/N)N[C@H]1[C@H](O)[C@@H](O)[C@H](O[C@@H]2O[C@@H](C)[C@](O)(C=O)[C@H]2O[C@@H]2O[C@@H](CO)[C@H](O)[C@@H](O)[C@@H]2NC)[C@@H](N/C(N)=N\[H])[C@@H]1O [Streptomycin, reference compound]	100
6) COc1ccc([C@@H]2CC(=O)c3c(O)cc(O)cc3O2)cc1O [Hesperetin, hesperetin]	1000

Now for another entry.
// lookup MBC for O=c1c(O)c(-c2ccc(O)cc2O)oc2cc(O)cc(O)c12 [Morin, morin]
250

* * *

- Tested on: P. aeruginosa IBRS P001
- ASSAY INFO: Antimicrobial microdilution assay (MIC/MBC)
- Type: cell-based, Pseudomonas aeruginosa
- CONDITION SET: Pseudomonas aeruginosa, IBRSP001; subcultivation, 24 h at 37 °C; read-out: MBC
VALUE KIND: MBC (µg/mL)
Form entry: value (µg/mL) — number only.

1. C[C@@H]1O[C@@H](OC[C@H]2O[C@@H](Oc3c(-c4ccc(O)c(O)c4)oc4cc(O)cc(O)c4c3=O)[C@H](O)[C@@H](O)[C@@H]2O)[C@H](O)[C@H](O)[C@H]1O	1000
2. O=C(/C=C/c1ccc(O)c(O)c1)O[C@@H]1C[C@](O)(C(=O)O)C[C@@H](O)[C@H]1O	1000

Now for another entry.
// lookup MBC for C[C@@H]1O[C@@H](O[C@H]2[C@H](Oc3cc(O)c4c(c3)O[C@H](c3ccc(O)cc3)CC4=O)O[C@H](CO)[C@@H](O)[C@@H]2O)[C@H](O)[C@H](O)[C@H]1O
500
